Listing of entries alongside the reported Papp B→A at 1 h, 5 μM.
assay: Bidirectional transport assay across MRP2 KO Caco-2 monolayers; conditions: human, pH 7.4
API: value field is a number in ×10⁻⁶ cm/s; no unit string.

Known results for compounds:
Cc1cccc(C)c1OCC(=O)N[C@@H](Cc1ccccc1)[C@@H](O)C[C@H](Cc1ccccc1)NC(=O)[C@H](C(C)C)N1CCCNC1=O ... 20.1
CC(C)CN(C[C@@H](O)[C@H](Cc1ccccc1)NC(=O)O[C@H]1CO[C@H]2OCC[C@H]21)S(=O)(=O)c1ccc(N)cc1 ... 29.8
Cc1c(O)cccc1C(=O)N[C@@H](CSc1ccccc1)[C@H](O)CN1C[C@H]2CCCC[C@H]2C[C@H]1C(=O)NC(C)(C)C ... 14.7

Alright, here's another compound for you.
Return Papp B→A at 1 h, 5 μM (reported value) for this compound: C[C@H]1O[C@@H](O[C@H]2[C@@H](O)C[C@H](O[C@H]3[C@@H](O)C[C@H](O[C@H]4CC[C@@]5(C)[C@H](CC[C@@H]6[C@@H]5C[C@@H](O)[C@]5(C)[C@@H](C7=CC(=O)OC7)CC[C@]65O)C4)O[C@@H]3C)O[C@@H]2C)C[C@H](O)[C@@H]1O 17.6

###

test: Bidirectional transport assay across MRP2/BCRP double KO Caco-2 monolayers; details: human, pH 7.4
Listing of entries alongside the reported Papp B→A at 1 h, 5 μM.
API: value field is a number in ×10⁻⁶ cm/s; no unit string.

C[C@H]1O[C@@H](O[C@H]2[C@@H](O)C[C@H](O[C@H]3[C@@H](O)C[C@H](O[C@H]4CC[C@@]5(C)[C@H](CC[C@@H]6[C@@H]5C[C@@H](O)[C@]5(C)[C@@H](C7=CC(=O)OC7)CC[C@]65O)C4)O[C@@H]3C)O[C@@H]2C)C[C@H](O)[C@@H]1O ... 17.9

Return Papp B→A at 1 h, 5 μM (reported value) for this compound: Cc1c(O)cccc1C(=O)N[C@@H](CSc1ccccc1)[C@H](O)CN1C[C@H]2CCCC[C@H]2C[C@H]1C(=O)NC(C)(C)C 17.9

Return Papp B→A at 1 h, 5 μM (reported value) for this compound: CC(C)CN(C[C@@H](O)[C@H](Cc1ccccc1)NC(=O)O[C@H]1CO[C@H]2OCC[C@H]21)S(=O)(=O)c1ccc(N)cc1 27

Return Papp B→A at 1 h, 5 μM (reported value) for this compound: Cc1cccc(C)c1OCC(=O)N[C@@H](Cc1ccccc1)[C@@H](O)C[C@H](Cc1ccccc1)NC(=O)[C@H](C(C)C)N1CCCNC1=O 19

###

experiment: Bidirectional transport assay across P-gp KO Caco-2 monolayers; conditions: human, pH 7.4
Metric name: Papp B→A at 1 h, 5 μM (×10⁻⁶ cm/s)
API: value field is a number in ×10⁻⁶ cm/s; no unit string.

CC(C)CN(C[C@@H](O)[C@H](Cc1ccccc1)NC(=O)O[C@H]1CO[C@H]2OCC[C@H]21)S(=O)(=O)c1ccc(N)cc1 ... 13.6

Return Papp B→A at 1 h, 5 μM (reported value) for this compound: Cc1c(O)cccc1C(=O)N[C@@H](CSc1ccccc1)[C@H](O)CN1C[C@H]2CCCC[C@H]2C[C@H]1C(=O)NC(C)(C)C 2.18

Return Papp B→A at 1 h, 5 μM (reported value) for this compound: Cc1cccc(C)c1OCC(=O)N[C@@H](Cc1ccccc1)[C@@H](O)C[C@H](Cc1ccccc1)NC(=O)[C@H](C(C)C)N1CCCNC1=O 6.59

Return Papp B→A at 1 h, 5 μM (reported value) for this compound: C[C@H]1O[C@@H](O[C@H]2[C@@H](O)C[C@H](O[C@H]3[C@@H](O)C[C@H](O[C@H]4CC[C@@]5(C)[C@H](CC[C@@H]6[C@@H]5C[C@@H](O)[C@]5(C)[C@@H](C7=CC(=O)OC7)CC[C@]65O)C4)O[C@@H]3C)O[C@@H]2C)C[C@H](O)[C@@H]1O 1.67

###

test: Bidirectional transport assay across P-gp KO Caco-2 monolayers; settings: human, pH 7.4
Listing of entries alongside the reported Papp A→B at 1 h, 5 μM.
API: value field is a number in ×10⁻⁶ cm/s; no unit string.

Cc1c(O)cccc1C(=O)N[C@@H](CSc1ccccc1)[C@H](O)CN1C[C@H]2CCCC[C@H]2C[C@H]1C(=O)NC(C)(C)C [Nelfinavir] ... 4.17
C[C@H]1O[C@@H](O[C@H]2[C@@H](O)C[C@H](O[C@H]3[C@@H](O)C[C@H](O[C@H]4CC[C@@]5(C)[C@H](CC[C@@H]6[C@@H]5C[C@@H](O)[C@]5(C)[C@@H](C7=CC(=O)OC7)CC[C@]65O)C4)O[C@@H]3C)O[C@@H]2C)C[C@H](O)[C@@H]1O [Digoxin] ... 1.42
Cc1cccc(C)c1OCC(=O)N[C@@H](Cc1ccccc1)[C@@H](O)C[C@H](Cc1ccccc1)NC(=O)[C@H](C(C)C)N1CCCNC1=O [Lopinavir, lopinavir] ... 10.2

Alright, here's another compound for you.
Return Papp A→B at 1 h, 5 μM (reported value) for this compound: CC(C)CN(C[C@@H](O)[C@H](Cc1ccccc1)NC(=O)O[C@H]1CO[C@H]2OCC[C@H]21)S(=O)(=O)c1ccc(N)cc1 [Darunavir] 15.1

###

experiment: Bidirectional transport assay across MRP2/BCRP double KO Caco-2 monolayers; settings: human, pH 7.4, Papp A-to-B, Caco^MRP2−/−BCRP−/−; 5 μM substrate; 1 h, 37°C, HBSS pH 7.4; n = 3
Metric name: Papp A→B at 1 h, 5 μM (×10⁻⁶ cm/s)
API: value field is a number in ×10⁻⁶ cm/s; no unit string.

CC(C)CN(C[C@@H](O)[C@H](Cc1ccccc1)NC(=O)O[C@H]1CO[C@H]2OCC[C@H]21)S(=O)(=O)c1ccc(N)cc1 ... 4.4
C[C@H]1O[C@@H](O[C@H]2[C@@H](O)C[C@H](O[C@H]3[C@@H](O)C[C@H](O[C@H]4CC[C@@]5(C)[C@H](CC[C@@H]6[C@@H]5C[C@@H](O)[C@]5(C)[C@@H](C7=CC(=O)OC7)CC[C@]65O)C4)O[C@@H]3C)O[C@@H]2C)C[C@H](O)[C@@H]1O ... 2.03

Return Papp A→B at 1 h, 5 μM (reported value) for this molecule: Cc1c(O)cccc1C(=O)N[C@@H](CSc1ccccc1)[C@H](O)CN1C[C@H]2CCCC[C@H]2C[C@H]1C(=O)NC(C)(C)C 2.79

###

test: Bidirectional transport assay, Caco^BCRP−/− and Caco^MRP2−/− cells taken together; format: in vitro ADME; conditions: human, pH 7.4, read-out: Papp (B-to-A) permeability
Metric name: Papp B→A at 1 h, 5 μM

Return Papp B→A at 1 h, 5 μM (reported value) for this compound: CC(C)CN(C[C@@H](O)[C@H](Cc1ccccc1)NC(=O)O[C@H]1CO[C@H]2OCC[C@H]21)S(=O)(=O)c1ccc(N)cc1 298 to 343 nm/s

###

Listing of entries alongside the reported Papp B→A at 1 h, 5 μM.
assay: Bidirectional transport assay across BCRP KO Caco-2 monolayers; details: human, pH 7.4
API: value field is a number in nm/s; no unit string.

Known results for molecules:
CC(C)CN(C[C@@H](O)[C@H](Cc1ccccc1)NC(=O)O[C@H]1CO[C@H]2OCC[C@H]21)S(=O)(=O)c1ccc(N)cc1 ... 343
Cc1c(O)cccc1C(=O)N[C@@H](CSc1ccccc1)[C@H](O)CN1C[C@H]2CCCC[C@H]2C[C@H]1C(=O)NC(C)(C)C ... 48.8
C[C@H]1O[C@@H](O[C@H]2[C@@H](O)C[C@H](O[C@H]3[C@@H](O)C[C@H](O[C@H]4CC[C@@]5(C)[C@H](CC[C@@H]6[C@@H]5C[C@@H](O)[C@]5(C)[C@@H](C7=CC(=O)OC7)CC[C@]65O)C4)O[C@@H]3C)O[C@@H]2C)C[C@H](O)[C@@H]1O ... 148

Alright, here's another molecule for you.
Return Papp B→A at 1 h, 5 μM (reported value) for this molecule: Cc1cccc(C)c1OCC(=O)N[C@@H](Cc1ccccc1)[C@@H](O)C[C@H](Cc1ccccc1)NC(=O)[C@H](C(C)C)N1CCCNC1=O 184

###

test: Bidirectional transport assay across P-gp/MRP2 double KO Caco-2 monolayers; conditions: human, pH 7.4
Listing of entries alongside the reported efflux ratio at 1 h, 5 μM.
# respond with the number and nothing more

C[C@H]1O[C@@H](O[C@H]2[C@@H](O)C[C@H](O[C@H]3[C@@H](O)C[C@H](O[C@H]4CC[C@@]5(C)[C@H](CC[C@@H]6[C@@H]5C[C@@H](O)[C@]5(C)[C@@H](C7=CC(=O)OC7)CC[C@]65O)C4)O[C@@H]3C)O[C@@H]2C)C[C@H](O)[C@@H]1O [Digoxin] ... 1.05

Alright, here's another molecule for you.
Return efflux ratio at 1 h, 5 μM (reported value) for this molecule: Cc1c(O)cccc1C(=O)N[C@@H](CSc1ccccc1)[C@H](O)CN1C[C@H]2CCCC[C@H]2C[C@H]1C(=O)NC(C)(C)C [Nelfinavir] 1.07
